target: Aldehyde dehydrogenase, mitochondrial (Homo sapiens, UniProt P05091)
Sequence (P05091 whole entry): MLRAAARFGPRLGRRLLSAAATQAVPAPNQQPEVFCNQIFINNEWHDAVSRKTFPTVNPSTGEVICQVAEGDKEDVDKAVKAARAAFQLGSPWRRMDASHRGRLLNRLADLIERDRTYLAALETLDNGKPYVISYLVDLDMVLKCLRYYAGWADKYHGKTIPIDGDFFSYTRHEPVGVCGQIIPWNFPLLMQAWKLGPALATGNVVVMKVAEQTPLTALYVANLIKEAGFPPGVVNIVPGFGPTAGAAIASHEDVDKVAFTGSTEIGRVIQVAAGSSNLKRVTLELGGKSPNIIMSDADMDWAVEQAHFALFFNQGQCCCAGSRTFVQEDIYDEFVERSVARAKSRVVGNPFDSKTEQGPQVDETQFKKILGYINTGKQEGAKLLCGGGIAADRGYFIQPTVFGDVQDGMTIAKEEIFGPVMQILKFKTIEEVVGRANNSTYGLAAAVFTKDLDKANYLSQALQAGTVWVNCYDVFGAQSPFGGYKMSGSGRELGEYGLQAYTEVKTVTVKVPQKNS
The following ranges of IC50 define the classes used here: class A: < 200 nM; class B: ≥ 200 nM and < 500 nM; class C: ≥ 500 nM

Examples with answers:
Cc1oc2cc3oc(=O)c4c(c3cc2c1C)CCC4    class A
CCCc1cc(=O)oc2cc3oc(C)c(C)c3cc12    class B
Cc1oc2cc3oc(=O)c4c(c3cc2c1C)CCCC4    class A
CCCc1c(C)c2cc3c(C)c(C)oc3cc2oc1=O    class A
Cc1c(C)c2c(cc(C)c3c(C)coc32)oc1=O    class A
Cc1oc2cc3oc(=O)c4ccccc4c3cc2c1C    class A
Cc1oc2cc3oc(=O)c(CCC(=O)N4CCCCC4)c(C)c3cc2c1C    class C
CCCc1c(C)c2cc3c(C)coc3cc2oc1=O    class B

In plain terms, what class is COC(=O)C(C)Oc1ccc2c(C)cc(=O)oc2c1 (stereo unspecified) ?
class C

In plain terms, what class is `Cc1cc(=O)oc2cc3c(cc12)CCC(=O)O3` ?
class B

In plain terms, what class is `C/C(=N\O)c1cc2cc(Br)ccc2oc1=O` ?
class C

###

The compounds below have reported pIC50 for Aldehyde dehydrogenase X, mitochondrial (Homo sapiens).
// pIC50 is dimensionless: -log10 of concentration (M)

CCCc1c(C)c2cc3c(C)c(C)oc3cc2oc1=O    6.44
Cc1oc2cc3oc(=O)c(C)c(C)c3cc2c1C    6.51
Cc1oc2cc3oc(=O)c(CCC(=O)N4CCCCC4)c(C)c3cc2c1C    5.59
CCCc1cc(=O)oc2cc3oc(C)c(C)c3cc12    7.07
Cc1c(Cc2ccccc2)c(=O)oc2cc(OS(C)(=O)=O)ccc12    4.89
O=c1c(-c2ccc(O)cc2)coc2cc(O[C@@H]3O[C@H](CO)[C@@H](O)[C@H](O)[C@H]3O)ccc12 [DAIDZIN]    5.29

# `Cc1oc2cc3oc(=O)c4c(c3cc2c1C)CCC4` with Aldehyde dehydrogenase X, mitochondrial (Homo sapiens): pIC50 is 6.80

# `Cc1oc2cc3oc(=O)c4c(c3cc2c1C)CCCC4` with Aldehyde dehydrogenase X, mitochondrial (Homo sapiens): pIC50 is 7.02

# `CCCc1c(C)c2cc3c(C)coc3cc2oc1=O` with Aldehyde dehydrogenase X, mitochondrial (Homo sapiens): pIC50 is 6.06

###

The compounds below have reported Ki for Aldehyde dehydrogenase 1A1 (Homo sapiens, UniProt P00352).
Kindly provide the numeric value in µM only, without the unit symbol.

CCN(CC)c1ccc2c(C)cc(=O)oc2c1    1.2

Let us examine a further case.
# `Cc1cc(=O)oc2cc(OCC#N)ccc12` with Aldehyde dehydrogenase 1A1 (Homo sapiens, UniProt P00352): Ki is 6.9

###

Target: Aldehyde dehydrogenase, dimeric NADP-preferring (Homo sapiens)
Sequence (whole entry): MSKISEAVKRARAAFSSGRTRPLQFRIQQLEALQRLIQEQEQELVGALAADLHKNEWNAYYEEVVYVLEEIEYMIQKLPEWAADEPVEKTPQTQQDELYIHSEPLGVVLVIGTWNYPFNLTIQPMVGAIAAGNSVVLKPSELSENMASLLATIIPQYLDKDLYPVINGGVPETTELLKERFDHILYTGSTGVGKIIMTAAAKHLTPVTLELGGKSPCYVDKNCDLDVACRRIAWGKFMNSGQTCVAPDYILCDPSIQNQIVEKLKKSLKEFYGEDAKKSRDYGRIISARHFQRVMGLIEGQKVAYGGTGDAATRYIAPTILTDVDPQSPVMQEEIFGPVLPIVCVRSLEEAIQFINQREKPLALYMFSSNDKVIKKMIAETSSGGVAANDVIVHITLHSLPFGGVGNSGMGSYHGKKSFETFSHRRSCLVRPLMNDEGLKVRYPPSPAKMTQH
Assay: Inhibition of full length recombinant human ALDH3A1 expressed in Escherichia coli BL21(DE3) assessed as remaining dehydrogenase activity by measuring NAD(P)H level at 10 uM preincubated for 2 mins followed by addition of propionaldehyde as substrate in presence of NAD+ by spectrophotometric method
Record Criterion met whenever Activity is at 90% or higher; record Criterion not met when lower.

Record `Cc1c(Cc2ccccc2)c(=O)oc2cc(OS(C)(=O)=O)ccc12` ; criterion: Activity no lower than 90%. Met?
Criterion not met

Record `CCCc1cc(=O)oc2cc3oc(C)c(C)c3cc12` ; criterion: Activity no lower than 90%. Met?
Criterion not met

Record `Cc1oc2cc3oc(=O)c(CCC(=O)N4CCCCC4)c(C)c3cc2c1C` ; criterion: Activity no lower than 90%. Met?
Criterion met

Record `Cc1oc2cc3oc(=O)c(CCC(=O)NCc4ccccc4)c(C)c3cc2c1C` ; criterion: Activity no lower than 90%. Met?
Criterion not met

Record `COc1ccc2c(C)cc(=O)oc2c1` ; criterion: Activity no lower than 90%. Met?
Criterion not met

Record `Cc1cc(=O)oc2cc(OCC#N)ccc12` ; criterion: Activity no lower than 90%. Met?
Criterion not met

###

assay: Lipophilicity, log P of the compound; type: physicochemical; details: octanol/water
Record T whenever logP is at 4 or higher; record F when lower.

Cc1cc(=O)oc2cc(OCC(=O)c3ccccc3)ccc12    F
CCN(CC)c1ccc2c(C)cc(=O)oc2c1    F
Cc1oc2cc3oc(=O)c(C)c(C)c3cc2c1C    T
Cc1oc2cc3oc(=O)c(CCC(=O)NCc4ccccc4)c(C)c3cc2c1C    T
Cc1oc2cc3oc(=O)cc(Cc4ccccc4)c3cc2c1C    T

Record COC(=O)C(C)Oc1ccc2c(C)cc(=O)oc2c1 (stereo not given) ; criterion: logP no lower than 4. Met?
F

Record `Cc1c(C)c2cc3c(-c4ccccc4)coc3cc2oc1=O` ; criterion: logP no lower than 4. Met?
T

Record `Cc1c(C)c2cc3c(=O)ccoc3c(C)c2oc1=O` ; criterion: logP no lower than 4. Met?
F

###

Target: UniProtKB P00352
Sequence (P00352 whole entry): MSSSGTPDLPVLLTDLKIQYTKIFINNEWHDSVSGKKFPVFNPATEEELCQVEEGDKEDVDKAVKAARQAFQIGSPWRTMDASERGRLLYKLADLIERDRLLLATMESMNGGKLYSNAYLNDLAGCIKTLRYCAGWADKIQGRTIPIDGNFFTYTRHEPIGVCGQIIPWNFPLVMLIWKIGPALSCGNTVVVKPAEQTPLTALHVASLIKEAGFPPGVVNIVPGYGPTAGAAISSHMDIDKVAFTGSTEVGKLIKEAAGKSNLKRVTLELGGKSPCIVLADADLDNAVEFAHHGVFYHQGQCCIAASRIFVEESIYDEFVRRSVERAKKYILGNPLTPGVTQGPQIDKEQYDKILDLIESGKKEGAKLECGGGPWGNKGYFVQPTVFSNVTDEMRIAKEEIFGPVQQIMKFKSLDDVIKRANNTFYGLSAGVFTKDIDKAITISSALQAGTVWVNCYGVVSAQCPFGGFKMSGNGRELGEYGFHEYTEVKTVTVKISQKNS
measured endpoint: pKi
// pKi is dimensionless: -log10 of concentration (M)

Form field pKi, entry `CCN(CC)c1ccc2c(C)cc(=O)oc2c1` : 6.06

###

molecular target: Aldehyde dehydrogenase 1A1 (Homo sapiens)
measured endpoint: IC50

Solved cases below.
COC(=O)C(C)Oc1ccc2c(C)cc(=O)oc2c1 (configuration not stated)    Not Active
CCCc1cc(=O)oc2cc3oc(C)c(C)c3cc12    Not Active
Cc1oc2cc3oc(=O)c(C)c(C)c3cc2c1C    Not Active
Cc1oc2cc3oc(=O)c4ccccc4c3cc2c1C    Not Active
Cc1c(C)c2c(cc(C)c3c(C)coc32)oc1=O    Not Active
Cc1cc(=O)oc2cc3c(cc12)CCC(=O)O3    Not Active

Let us examine a further case.
# `C/C(=N\O)c1cc2cc(Br)ccc2oc1=O` with Aldehyde dehydrogenase 1A1 (Homo sapiens): IC50 is Not Active

###

The compounds below have reported pIC50 for Retinal dehydrogenase 2 (Homo sapiens, UniProt O94788).
// pIC50 is dimensionless: -log10 of concentration (M)

CCCc1c(C)c2cc3c(C)coc3cc2oc1=O    6.12
Cc1oc2cc3oc(=O)c(C)c(C)c3cc2c1C    6.48

# `Cc1oc2cc3oc(=O)c4c(c3cc2c1C)CCC4` with Retinal dehydrogenase 2 (Homo sapiens, UniProt O94788): pIC50 is 6.89

###

experiment: Lipophilicity, log P of the compound; type: physicochemical; conditions: octanol/water
measured endpoint: logP
No unit in the answer, only the number.

Cc1cc(=O)oc2cc(OCC(N)=O)ccc12    1.71

Form field logP, entry CC(=O)C(C)Oc1ccc2ccc(=O)oc2c1 (stereo unspecified) : 1.4

Form field logP, entry `Cc1oc2cc3oc(=O)c4c(c3cc2c1C)CCCC4` : 4.27
